What protein stability index was measured for each of the following?
# assayProcedure: protein stability index of a GFP-peptide fusion (GPS, HEK-293T) (PSI 1-6); higher = more stable;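 further: 24-mer peptide tiles fused after GFP, lentivirally expressed, FACS-sorted into six equal bins by GFP/DsRed ratio, decoded by Illumina sequencing, PSI is the read-weighted mean bin number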
# experimentalParameters: treatment: DMSO; c terminus: a fixed tail appended
Answer with a number only.

Q) For the sequence shown here, ADDESETPEELEEEIPVVICAAAG [GLT8D2] , give the reported protein stability index.
A) 5.58

Q) Please do the same for TSGVAAVQDWYHFHYVDILALLPA [SCNN1D] as well.
A) 2.42

Q) Subsequent entry: LLEKDYFGLTYRDAENQKNWLDPA [EPB41L3]
A) 3.1

Q) Consider next the sequence VVHQRVHSGEKPYKCSDCGKTFKQ [ZNF232] in the same way.
A) 3.29

Q) Now try LLSGAFKKRRLPPVHIHPAFARQA [FOXJ1] .
A) 2.21

Q) Item: LFYDDYYEDGEVEEEADSCFGDDE [CDC34]
A) 4.79

Q) Repeat with LCQHFEAVHSGTPVTNNLLEKCKT [SPACA9]
A) 4.14

Q) What about this sequence? DPGADSEKSTVVEGGEVRFNGKGK [DLX1]
A) 5.51

Q) Next sequence up: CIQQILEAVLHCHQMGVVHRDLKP [CAMK2A]
A) 2.75

Q) How about IVTKFYQLSATGQKLYVRLFQRKL [FAN1] ?
A) 3.6

Q) Please do the same for STPTTPGSTAITPGTPPSYSSRTP [MAP2] as well.
A) 4.88

Q) Would you mind doing RDKNWQTPLHVAAANKAVKCAEVI [ANKRD44] as well?
A) 3.69

Q) Continue with SGHKLYIFLFQDILVLTRPVTRNE [NET1]
A) 2.6

Q) And the next one, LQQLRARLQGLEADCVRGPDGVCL [PBXIP1] ?
A) 2.7

Q) Field entry: MVPISKQPKEKIQAIIESCSRQFP [NOL4L]
A) 3.34

Q) Please give the result for KKKTKVLKQRTVIEMFKSITHSTV [EHMT1] too.
A) 2.44

Q) How about DYWLRRFEAEPLPENTNRQLLLQF [PI4K2A] ?
A) 2.41

Q) And what about the sequence LIESEAPPKASEQETAKEEDGSVE [C18orf25] ?
A) 5.59

Q) Same for EPHGKMFNEQTWEVSQQDPSHGEV [ZSCAN9]
A) 5.06

Q) Next sequence: LVRDWSFPYEYSYGLQGGMAFLDK [ATL3]
A) 1.96

Q) Now consider LKTQSLEGKRKAFYTCASHVTVVI [OR4A15] and answer again.
A) 2.91

Q) Note, next up: HSVLQIRYSGKILKNNETLVQHGV [IQUB]
A) 2.09

Q) And for QFSVVSVVAYLALAALSATISFRI [RTN1] ?
A) 2.99

Q) Repeat with CADVILVLQERVRIFAHKIYLSTS [RHOBTB2]
A) 3.01

Q) Now consider EKHCEFKQLALDHFKKTKKMGGKD [ATL3] and answer again.
A) 4.64

Q) Now the sequence ITSETTSTTTTTHITKTVKGGISE [EPB41L3]
A) 5.06

Q) Also PMDSTMDDAVAGDFALINKLDIQC [ATE1] ?
A) 4.4

Q) Continue with SARYLEAALRLHRLLRDSEAFCHA [P3H4]
A) 2.51

Q) Try the sequence WFSCQGPFDMDSCLSRHSINPYSN [DFFB]
A) 2.35

Q) Do the same for QALKFLPVPSAPVIDLAESLVADN [FSD1] please
A) 3.48

Q) Now try AFLKLAKQRSVCTWGKNKPGIGAV [FAN1] .
A) 2.76

Q) Next sequence: SLSHTELEAAEVILEHAHRGEQTT [FCHSD1]
A) 5.22

Q) # iterate: LPEQVDIIISEPMGYMLFNERMLE [CARM1]
A) 2.24

Q) Request: TGKAPSPRAAHACATVGNRGFVFG [KLHDC2]
A) 2.38

Q) Same question, EDLMPLAAAYGHALEQYEGESWRE [P3H4] this time
A) 4.59

Q) Try this sequence next: PSFLSQTGHGVSRGPSPVVLGSQD [FCHO1]
A) 4.33

Q) Next entry: EMAEQLMTLAYDNGINLFDTAEVY [KCNAB2]
A) 2.3

Q) Further, for FDDGDDIMATLGFGDSPKAEKRQI [FBF1] ?
A) 3.97

Q) Same lookup for RLFQVVGKTDDTLALLNLACMMTI [TMEM175] , please.
A) 2.92

Q) // repeat for ARLNGSVASYILASHNGISYKDLD [TENT5D] and report
A) 2.85

Q) Repeat with KKRKVDGLSTEAEQPFIPVEVLVD [PRAME]
A) 3.8

Q) Next record, please: DKNVQVVELPIVDSLHPRPPYLPL [FUT8]
A) 3.2

Q) Consider next the sequence LKENNFQPYPLPHVRHMAYQLCHA [CLK3] in the same way.
A) 2.46

Q) Same question for SGLVRRLWRSRVVPDREEGGSGGG [SMAD6] please.
A) 3.91

Q) What would you report for EIPKQVKVKKLKNLKTLDSKPGVY [DENND6A] ?
A) 3.4

Q) Follow-up item: VCALCPVLGAHRGHPVGLALEAAV [TRIM14]
A) 2.57

Q) Same question for RAPACSPEAAAAQLRATAGSLILP [FCHO1] please.
A) 3.12

Q) Item: VLEYRRTNFEGPPRLKEDQPWMVI [FSD1]
A) 2.12

Q) Do the same for ESGASIEDHNENGHTPLMEAGSAG [ANKRD17] please
A) 5.47

Q) Check VVPVLVFPPDLVFRADQRSGPRQL [MOSPD3] too.
A) 2.27

Q) And the next one, RVAIAHYQDDPDLRFLLDQVQLGL [TSPAN10] ?
A) 2.28

Q) Same lookup for RYVLKAGQTVTIWAANAGVTASPP [LMNB1] , please.
A) 3.62

Q) Another: LRQQLVVSKELRMYDEKAHEWKSL [KLHL13]
A) 2.93

###

# assayProcedure: protein stability index of a GFP-peptide fusion (GPS, HEK-293T) (PSI 1-6); higher = more stable
# experimentalParameters: treatment: DMSO; c terminus: a fixed tail appended
Response key: yes (1) means protein stability index >= 3; no (0) means protein stability index < 3.

Q) Does protein stability index meet or surpass 3 for TKRSSRNPVFQDSWDTESSGSDSG [FAM104A] ?
A) yes (1)

Q) What would you report for EYMKNLLKVGGILVMPLEEKLTKI [PCMTD2] ?
A) no (0)

Q) What about SFPLEWAPQNLTRWTFEKACHPFL [TOR1AIP2] ?
A) no (0)

Q) Another sequence: YKVNTPMLQSFINYCLLFLIYTVM [SLC35F2]
A) no (0)

Q) Next sequence: SLGYVRSQFLKLKTSVEKANAQIQ [CD207]
A) no (0)

Q) // repeat for DTINRSVLDFDFEKLCSISLSHIN [USP39] and report
A) no (0)

Q) Then what about the sequence EEQVILTEKDLLEDGFGEHPFYHC [SAT1] ?
A) yes (1)

Q) Another sequence to look at: NEIFTQLYRTLFSVINNGHNQKVH [PDS5B]
A) no (0)

Q) Queued: GNLSVLDVGCISVTVPSMLSRLLS [OR3A1]
A) no (0)

Q) Lookup THEVMGPKKKHLDYLIQATNETNV [SNAP91]
A) yes (1)

Q) How about HFTAMVWKNTKKMGVGKASASDGS [GLIPR2] ?
A) yes (1)

Q) Next record, please: SSASSEQGLLGRSPPTRPVPGHRS [SPRY1]
A) yes (1)

###

Provide the reported protein stability index of each item.
# assayProcedure: protein stability index of a GFP-peptide fusion (GPS, HEK-293T) (PSI 1-6); higher = more stable
# experimentalParameters: treatment: DMSO; c terminus: a fixed tail appended

Q) Recorded protein stability index of ARPSSASIRDANLYVSGLPKTMSQ [ELAVL3] , please.
A) 4.08

Q) Similarly, EAFQIVLSHLLGDAGSPYLIGLIS [SPNS1] ?
A) 3.11

Q) Follow-up entry: MLTVMTKYQANITETQRLGLAMAL [FANCE]
A) 2.52

Q) Record: CIMDDAINILQNEKSHQVLAQLLD [INTS4]
A) 2.18

Q) And the next one, VSTQRSQDHFHVFVGDLSPEITTE [TIA1] ?
A) 3.98

Q) What do we get for EEEVVEGEKEVEALKKSADWVSDW [BNIP3L] ?
A) 5.08

Q) Entry to check: SSTQLNELLLFAVGFIMAGTPMAL [OR3A1]
A) 3.05

Q) Follow-up entry: AAVESVLHLGLPWRMLRPQLVNSS [PPEF2]
A) 2.74

Q) Lookup SVETLDHDSVVEMIRKGGDQTSLL [PDZK1]
A) 4.44

Q) Now give it for LLDHNANIDIQNGFLLRYAVIKSN [ASB7] too.
A) 2.53

Q) // query: CHRRYSCAHCRAHLANHDDLISKS [YPEL3]
A) 2.44

Q) Try this sequence next: TVEQGCQILDSLSYMRNENVISEL [FBXO39]
A) 3.5

Q) // same read-out, input: PPRGPQQLSSFGSVDWLSQSSCSG [VENTX]
A) 3.77

Q) What about IHLREDLVQDQDLEAIRKQDLVEL [ZER1] ?
A) 4.5

Q) Please give the result for QALSNVPPLRNYFLEEDNYKNIKR [USP39] too.
A) 3.77

Q) One more sequence: VAACTKEIDTQGRHLAHSMLQRAI [C10orf62]
A) 2.86

Q) Same question for EVDPTGHSFVLVTSLGLTYDGMLS [MAGEA10] please.
A) 2.51

Q) Moving on to QGEGPEAGDAEVCPTPARLATTEK [NOP53]
A) 5.46

Q) Also EHSWIKAIRRRNVRGEDSGRKPER [DAPK3] , if possible.
A) 3.62

Q) Try this sequence next: LTIMPYNSAHHCVVEVENFLFVLG [KLHL14]
A) 3.26

Q) Cool, now VGEVLKDIETACKLLNITADPMDW [SPDEF]
A) 2.71

Q) Now consider LKQLKHPNLVNLIEVFRRKRKMHL [CDKL4] and answer again.
A) 2.44

Q) Could you do the same for VEWAKYIPAFCELPLDDQVALLRA [HNF4A] , please?
A) 2.42

Q) Query WGFRLVGGRDFSAPLTISRVHAGS [PDLIM4] next
A) 2.02

Q) Now consider VAVDSNLRVRELQRKVDGIQKAYD [CCDC89] .
A) 3.85

Q) Cool, now GGGFGGGSCQLGGGRGVSTCSTRF [KRT13]
A) 3.5

Q) Please do the same for LEAQPYEAVFLRAVKLYNSGDFRS [P3H4] as well.
A) 2.42
